- assay_comment: physchem
- condition_details: Solubility in PBS (mg/ml)
assay_endpoint: solubility (µg/mL)
Answers are plain numbers, in µg/mL.

Consider the compound shown here: CC(C)C[C@H](NC(=O)[C@H](Cc1c[nH]c2ccccc12)NC(=O)[C@@H](N)CO)C(=O)N[C@@H](C)C(=O)N[C@@H](Cc1ccc(O)cc1)C(=O)N1CCC[C@H]1C(=O)NCC(=O)N[C@@H](C)C(=O)N[C@H](C(=O)N[C@@H](CO)C(=O)N[C@@H](Cc1ccc(O)cc1)C(=O)N[C@@H](CCCN=C(N)N)C(=O)O)C(C)C [SWL] What is its recorded solubility?
5000

# credit: patent US12398179B2
